Target: UniProt:P0DMS8
Sequence (P0DMS8 whole entry): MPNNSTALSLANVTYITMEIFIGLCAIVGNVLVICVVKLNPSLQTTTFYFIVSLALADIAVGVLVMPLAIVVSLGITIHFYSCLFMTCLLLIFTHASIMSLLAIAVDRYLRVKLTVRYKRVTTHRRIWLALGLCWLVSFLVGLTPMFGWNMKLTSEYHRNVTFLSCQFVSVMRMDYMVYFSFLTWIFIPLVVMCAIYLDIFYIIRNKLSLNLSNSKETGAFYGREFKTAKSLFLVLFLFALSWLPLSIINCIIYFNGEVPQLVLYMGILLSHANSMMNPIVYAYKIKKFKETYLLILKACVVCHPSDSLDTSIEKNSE
Test: Displacement of [3H]MRE3008-F20 from human adenosine A3 receptor expressed in CHO cells; range 17-36
Format: cell-based

line-notation: COc1ccc(NC(=O)Nc2nc3nn(CCc4cc(Br)c(Br)cc4Br)cc3c3nc(-c4ccco4)nn23)cc1
Ki (nM): 25

----------
Biological target: Adenosine receptor A2b (Homo sapiens, UniProt P29275)
Sequence (P29275 whole entry): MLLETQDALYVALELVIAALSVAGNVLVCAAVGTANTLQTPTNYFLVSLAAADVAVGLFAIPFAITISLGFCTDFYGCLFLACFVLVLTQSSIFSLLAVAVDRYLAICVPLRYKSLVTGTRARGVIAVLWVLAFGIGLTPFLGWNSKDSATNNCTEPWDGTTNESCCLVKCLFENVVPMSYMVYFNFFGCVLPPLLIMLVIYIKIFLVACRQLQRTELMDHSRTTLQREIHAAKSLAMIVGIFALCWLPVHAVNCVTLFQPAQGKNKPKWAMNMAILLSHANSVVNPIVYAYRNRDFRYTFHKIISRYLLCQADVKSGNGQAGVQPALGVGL
Test: Displacement of [3H]DPCPX from Adenosine A2b receptor expressed in HEK-293 cells; range 3828-4817
pKi: −log10 of the molar value.
property-name: pKi

line-notation: Nc1nc2nn(CCc3cccc4ccccc34)cc2c2nc(-c3ccco3)nn12
reported-measurement: 5.37

----------
Entries and their Ratio
Target: Adenosine receptors; A2b & A3 (Homo sapiens) (UniProt P29275+P0DMS8)
Experiment: Ratio of binding affinity of human A2B receptor to that of human A3 receptor
Type: protein assay
property-name: Ratio

line-notation: COc1ccc(NC(=O)Nc2nc3nn(C(C)(C)C)cc3c3nc(-c4ccco4)nn23)cc1
property-name: Ratio
operator: =
reported-measurement: 2140

line-notation: CCCCn1cc2c(nc(NC(=O)Nc3ccc(OC)cc3)n3nc(-c4ccco4)nc23)n1
property-name: Ratio
operator: =
reported-measurement: 946

line-notation: Nc1nc2n[nH]cc2c2nc(-c3ccco3)nn12
property-name: Ratio
operator: =
reported-measurement: 0.15

line-notation: COc1ccc(NC(=O)Nc2nc3ccc(Cl)cc3c3nc(-c4ccco4)nn23)cc1
property-name: Ratio
operator: =
reported-measurement: 158

line-notation: Nc1nc2nn(CCc3ccccc3)cc2c2nc(-c3ccco3)nn12
property-name: Ratio
operator: =
reported-measurement: 0.0017

line-notation: CC(C)CCn1cc2c(nc(NC(=O)Nc3cccc(Cl)c3)n3nc(-c4ccco4)nc23)n1
property-name: Ratio
operator: =
reported-measurement: 1.5

line-notation: COc1ccc(NC(=O)Nc2nc3nn(CCc4cccc5ccccc45)cc3c3nc(-c4ccco4)nn23)cc1
property-name: Ratio
operator: >
reported-measurement: 625

line-notation: CCn1cc2c(nc(NC(=O)Nc3ccc(OC)cc3)n3nc(-c4ccco4)nc23)n1
property-name: Ratio
operator: =
reported-measurement: 408

line-notation: CCn1cc2c(nc(NC(=O)Nc3cccc(Cl)c3)n3nc(-c4ccco4)nc23)n1
property-name: Ratio
operator: =
reported-measurement: 93.7

line-notation: CCCCn1cc2c(nc(NC(=O)Nc3cccc(Cl)c3)n3nc(-c4ccco4)nc23)n1
property-name: Ratio
operator: =
reported-measurement: 116

----------
Biological target: Adenosine receptor A3 (Homo sapiens)
Assay: Inhibition of cAMP accumulation in CHO cells expressing human adenosine A3 receptor; range 3.5-7.6
Assay type: functional, cell-based
pIC50: −log10 of the molar value.
property-name: pIC50

line-notation: C=CCn1cc2c(nc(NC(=O)Nc3ccc(OC)cc3)n3nc(-c4ccco4)nc23)n1
reported-measurement: 8.29

----------
Target: Adenosine receptor A3 (Homo sapiens)
Experiment: Inhibition of cAMP accumulation in CHO cells expressing human adenosine A3 receptor; range 1.7-4.2
Type: functional, cell-based
property-name: IC50 (nM)

line-notation: COc1ccc(NC(=O)Nc2nc3nn(C)cc3c3nc(-c4ccco4)nn23)cc1
target-or-system: Adenosine receptor A3 (Homo sapiens)
unit-string: nM
reported-measurement: 2.7

----------
Target: Adenosine receptor A3 (Homo sapiens, UniProt P0DMS8)
Assay: Displacement of [3H]MRE3008-F20 from human adenosine A3 receptor expressed in CHO cells; range 378-488
Assay type: cell-based
property-name: Ki

line-notation: Nc1nc2nn(CCCc3ccccc3)cc2c2nc(-c3ccco3)nn12
target-or-system: Adenosine receptor A3 (Homo sapiens, UniProt P0DMS8)
property-name: Ki
reported-measurement: 430 nM

----------
Biological target: Adenosine receptor A2a (Homo sapiens, UniProt P29274)
Sequence (P29274 whole entry): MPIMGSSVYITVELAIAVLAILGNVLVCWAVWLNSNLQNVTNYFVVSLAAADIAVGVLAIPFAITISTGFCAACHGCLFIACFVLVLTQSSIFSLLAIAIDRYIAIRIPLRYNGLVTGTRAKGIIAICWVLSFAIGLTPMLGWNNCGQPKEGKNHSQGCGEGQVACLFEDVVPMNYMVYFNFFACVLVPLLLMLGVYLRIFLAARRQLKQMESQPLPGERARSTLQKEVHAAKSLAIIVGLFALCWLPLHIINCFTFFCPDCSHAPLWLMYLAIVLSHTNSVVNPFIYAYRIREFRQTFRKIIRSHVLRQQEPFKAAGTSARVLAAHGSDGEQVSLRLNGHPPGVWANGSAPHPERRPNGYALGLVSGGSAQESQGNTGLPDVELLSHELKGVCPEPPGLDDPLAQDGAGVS
Assay: Displacement of [3H]-SCH- 58261 from human adenosine A2A receptor expressed in CHO cells; range 2826-3761
Format: cell-based
property-name: Ki (µM)

line-notation: COc1ccc(NC(=O)Nc2nc3nn(CCc4cccc5ccccc45)cc3c3nc(-c4ccco4)nn23)cc1
unit-string: µM
reported-measurement: 3.26

----------
Target: Adenosine receptor A3 (Homo sapiens, UniProt P0DMS8)
Assay: Displacement of [3H]MRE3008-F20 from human adenosine A3 receptor expressed in CHO cells; range 0.63-1.00
Format: cell-based
pKi: −log10 of the molar value.

line-notation: COc1ccc(NC(=O)Nc2nc3nn(C(C)(C)C)cc3c3nc(-c4ccco4)nn23)cc1
target-or-system: Adenosine receptor A3 (Homo sapiens, UniProt P0DMS8)
pKi: 9.10

----------
Biological target: Adenosine receptor A2b (Homo sapiens)
Experiment: Displacement of [3H]DPCPX from Adenosine A2b receptor expressed in […]; range 19-27
Type: cell-based

line-notation: COc1ccc(NC(=O)Nc2nc3ccc(Cl)cc3c3nc(-c4ccco4)nn23)cc1
Ki (nM): 22

----------
Target: Adenosine receptor A2b (Homo sapiens, UniProt P29275)
Assay: Displacement of [3H]DPCPX from Adenosine A2b receptor expressed in HEK-293 cells; range 40-69
property-name: Ki (nM)

line-notation: CCCCn1cc2c(nc(N)n3nc(-c4ccco4)nc23)n1
reported-measurement: 53

----------
Target: Adenosine receptor A1 (Homo sapiens)
Assay: Displacement of [3H]DPCPX from human adenosine A1 receptor expressed in CHO cells; range 928-1297
Type: cell-based

line-notation: COc1ccc(NC(=O)Nc2nc3nn(C)cc3c3nc(-c4ccco4)nn23)cc1
Ki (nM): 1100

----------
Target: Adenosine receptor A1 (Homo sapiens, UniProt P30542)
Sequence (P30542 whole entry): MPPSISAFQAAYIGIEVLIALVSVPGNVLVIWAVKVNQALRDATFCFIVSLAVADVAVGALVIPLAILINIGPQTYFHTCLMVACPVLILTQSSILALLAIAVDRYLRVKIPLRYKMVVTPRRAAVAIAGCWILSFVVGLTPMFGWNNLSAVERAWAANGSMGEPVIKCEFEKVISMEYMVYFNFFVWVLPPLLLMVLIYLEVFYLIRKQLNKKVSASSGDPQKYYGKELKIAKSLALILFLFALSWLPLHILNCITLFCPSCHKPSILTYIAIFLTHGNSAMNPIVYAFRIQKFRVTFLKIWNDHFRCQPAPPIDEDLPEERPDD
Assay: Displacement of [3H]DPCPX from human adenosine A1 receptor expressed in CHO cells; range 83-120
Format: cell-based
pKi: −log10 of the molar value.

line-notation: CC(C)CCn1cc2c(nc(NC(=O)Nc3cccc(Cl)c3)n3nc(-c4ccco4)nc23)n1
pKi: 7.00

----------
Target: Adenosine receptor A1 (Homo sapiens, UniProt P30542)
Assay: Displacement of [3H]DPCPX from human adenosine A1 receptor expressed in CHO cells; range 327-462
Assay type: cell-based
pKi: −log10 of the molar value.
property-name: pKi

line-notation: O=C(Nc1cccc(Cl)c1)Nc1nc2nn(CCc3cc(Br)c(Br)cc3Br)cc2c2nc(-c3ccco3)nn12
reported-measurement: 6.41

----------
Molecular target: UniProt:P29275
Experiment: Displacement of [3H]DPCPX from Adenosine A2b receptor expressed in […]; range 260-352
Type: cell-based

line-notation: CCCCn1cc2c(nc(NC(=O)Nc3ccc(OC)cc3)n3nc(-c4ccco4)nc23)n1
Ki [µM]: 0.303

----------
Target: Adenosine receptor A2a (Homo sapiens, UniProt P29274)
Experiment: Displacement of [3H]-SCH- 58261 from human adenosine A2A receptor expressed in CHO cells; range 65-92
Assay type: cell-based
property-name: Ki (nM)

line-notation: CCCCn1cc2c(nc(NC(=O)Nc3ccc(OC)cc3)n3nc(-c4ccco4)nc23)n1
reported-measurement: 80

----------
Target: UniProt:P30542
Assay: Displacement of [3H]DPCPX from human adenosine A1 receptor expressed in CHO cells; range 323-378
Format: cell-based
pKi: −log10 of the molar value.
property-name: pKi

line-notation: Cn1cc2c(nc(NC(=O)Nc3cccc(Cl)c3)n3nc(-c4ccco4)nc23)n1
reported-measurement: 6.46

----------
Target: Adenosine receptor A1 (Homo sapiens)
Assay: Displacement of [3H]-DPCPX from human adenosine A1 receptor expressed in CHO cells; […]
Type: cell-based
pKi: −log10 of the molar value.
property-name: pKi

line-notation: C=CCn1cc2c(nc(NC(=O)Nc3ccc(OC)cc3)n3nc(-c4ccco4)nc23)n1
target-or-system: Adenosine receptor A1 (Homo sapiens)
reported-measurement: 5.82

----------
Biological target: Adenosine receptor A3 (Homo sapiens, UniProt P0DMS8)
Assay: Displacement of [3H]MRE3008-F20 from human adenosine A3 receptor expressed in CHO cells; range 0.51-0.70
Assay type: cell-based
pKi: −log10 of the molar value.

line-notation: CCn1cc2c(nc(NC(=O)Nc3ccc(OC)cc3)n3nc(-c4ccco4)nc23)n1
pKi: 9.22
